# target.of.assay: PKM2 (Homo sapiens, UniProt P14618)
# Sequence (P14618 whole entry): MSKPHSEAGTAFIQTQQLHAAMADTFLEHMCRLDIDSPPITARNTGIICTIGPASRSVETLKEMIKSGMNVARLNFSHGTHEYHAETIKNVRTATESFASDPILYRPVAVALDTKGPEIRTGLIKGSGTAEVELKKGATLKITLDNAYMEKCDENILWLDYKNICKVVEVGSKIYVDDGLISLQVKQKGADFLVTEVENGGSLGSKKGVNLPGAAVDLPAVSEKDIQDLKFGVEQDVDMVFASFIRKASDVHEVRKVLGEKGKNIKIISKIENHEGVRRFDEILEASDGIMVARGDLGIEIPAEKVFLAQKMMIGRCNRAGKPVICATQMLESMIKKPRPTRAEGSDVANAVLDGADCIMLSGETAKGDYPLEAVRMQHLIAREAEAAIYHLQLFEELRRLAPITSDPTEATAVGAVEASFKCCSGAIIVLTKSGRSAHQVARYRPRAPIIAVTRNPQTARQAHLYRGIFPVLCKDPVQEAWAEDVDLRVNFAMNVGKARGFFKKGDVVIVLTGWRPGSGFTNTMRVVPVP
# method.summary: PKM2 Assay (activation, LDH-coupled NADH absorbance at 340 nm)
# Format: biochemical
# measurement.parameters: activation of PKM2; PKM2 50 ng/well, ADP 0.7 mM, PEP 0.15 mM, room temperature (25° C.); read-out: AC50
Below, each entry is listed alongside its reported AC50.
observable: AC50

- smiles.structure: "CC(C)NC(=O)OC1CN(C(=O)c2ccc(NS(=O)(=O)c3cccc4cccnc34)cc2)C1"
  observable: "AC50"
  recorded.value: "1000 to 10000 nM"
- smiles.structure: "COc1ccccc1N(C)C1CN(C(=O)c2ccc(NS(=O)(=O)c3cccc4cccnc34)cc2)C1"
  observable: "AC50"
  recorded.value: "100 to 1000 nM"
- smiles.structure: "Cc1cc(C(=O)N2CC(O)(Cc3ccccc3)C2)ccc1NS(=O)(=O)c1cccc2cccnc12"
  observable: "AC50"
  recorded.value: "< 100 nM"
- smiles.structure: "COc1cccnc1NC1CN(C(=O)c2ccc(NS(=O)(=O)c3cccc4cccnc34)c(C)c2)C1"
  observable: "AC50"
  recorded.value: "< 100 nM"
- smiles.structure: "O=C(c1ccc(NS(=O)(=O)c2cccc3cccnc23)cc1)N1CC(O)(Cc2ccccc2)C1"
  observable: "AC50"
  recorded.value: "< 100 nM"
- smiles.structure: "Cc1cc(C(=O)N2CC(Nc3ccccc3)C2)ccc1NS(=O)(=O)c1cccc2cccnc12"
  observable: "AC50"
  recorded.value: "< 100 nM"
- smiles.structure: "O=C(NC1CN(C(=O)c2ccc(NS(=O)(=O)c3cccc4cccnc34)c(F)c2)C1)c1ccccn1"
  observable: "AC50"
  recorded.value: "1000 to 10000 nM"
- smiles.structure: "Cc1cc(C(=O)N2CC(Oc3ccccc3)C2)ccc1NS(=O)(=O)c1cccc2cccnc12"
  observable: "AC50"
  recorded.value: "< 100 nM"

Just for reference, patent US9221792B2 is where these values come from.
